SYSTEM_UNDER_TEST: T1, PUF4 RNA-binding domain (Saccharomyces cerevisiae, UniProt P25339 537-888)
T1 sequence: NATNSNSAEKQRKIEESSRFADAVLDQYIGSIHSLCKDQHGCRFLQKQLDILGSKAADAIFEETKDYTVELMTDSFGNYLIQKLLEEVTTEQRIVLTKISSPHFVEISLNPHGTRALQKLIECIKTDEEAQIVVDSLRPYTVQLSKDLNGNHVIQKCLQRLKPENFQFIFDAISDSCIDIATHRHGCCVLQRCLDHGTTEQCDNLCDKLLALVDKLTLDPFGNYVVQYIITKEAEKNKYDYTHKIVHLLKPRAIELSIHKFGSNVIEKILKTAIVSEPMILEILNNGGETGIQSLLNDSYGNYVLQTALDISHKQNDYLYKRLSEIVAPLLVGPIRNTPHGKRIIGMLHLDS
ASSAY_PROCEDURE: Mg; RNA-MaP; 20 mM Na-HEPES pH 7.4, 30 mM KOAc, 0.75 mM MgCl2, 0.1% Tween-20, 5% glycerol, 0.1 mg/mL BSA, 2 mM DTT; 25 C; 0.0125-409.6 nM protein
APPLIED_CONDITIONS: tags: N-His6-TEV cleaved; C-SNAP kept, Cy3B-labelled; label: tethered on chip by stalled RNA polymerase
Exercise: for every item that follows, state its recorded Kd.
Only the number, expressed in nM, is required.

Query: Tell us which Kd value is on record for Id_ii_S2_P5E.3_K5.2_C5.2_H5.2_A5.1_F5.1_T5.2_[A12C] (ssRNA) RNA: UUUGAUUAAUAUGAUAUCGUUCUUUCUCUUAUAUUAUUAUCUUCUUUCUCGAUAUCAUAUUAAUCUUU
Reply: 65.7

Query: Read off the recorded Kd for UCUCUUUGUAAAUAUUCUCUU (ssRNA) [Ic_S1_P4E.1_K4.1_C4.1_H4.1_A4.1_[T5A]_F4.1_[T8A]_[A9T]_T4.1]
Reply: 26.2

Query: Quote Kd reported for UCUCUUCAUAUAUAUUAGGUCUCUU (ssRNA) [Id_ii_S1_P4E.3_K4.2_C4.2_[T-1A]_H4.2_A4.1_F4.1_T4.2_[T11G]] please.
Reply: 18.2

Query: For the binder Ic_S2_P5E.1_K5.1_C5.1_H5.1_A5.1_[T5A]_[A7C]_F5.1_[T9C]_[A10T]_T5.1 (ssRNA) RNA: UUUGAUUAAUAUGAUAUCGUUCUUUCUUGUAAUCUCUUUCUUUCUCGAUAUCAUAUUAAUCUUU , give its measured Kd value.
Reply: 36.5

Query: For the binder UCUCUUUGUAAUCAUCUCUU (ssRNA) [Ic_S1_P3E.1_K3.1_C3.1_H3.1_A3.1_[T5A]_[A6T]_F3.1_[T7C]_T3.1] , give its measured Kd value.
Reply: 758

Query: Identify the reported Kd for the following entry. Ic_S2_P5E.1_K5.1_C5.1_H5.1_A5.1_[T5C]_[T6A]_[A7C]_F5.1_[T9C]_T5.1 (ssRNA) RNA: UUUGAUUAAUAUGAUAUCGUUCUUUCUUGUACACUCAUUCUUUCUCGAUAUCAUAUUAAUCUUU
Reply: 7.78

Query: Provide measured Kd value, entry: Id_ii_S2_P4E.2_K4.1_C4.2_[C-2A]_[T-1G]_H4.1_A4.1_F4.1_T4.2_[G10T]_[T11C] (ssRNA) RNA: UUUGAUUAAUAUGAUAUCGUUCUUUCUAGUGUAUAUUAUCUUCUUUCUCGAUAUCAUAUUAAUCUUU
Reply: 2.27

Query: Consider the binder Ie_S2_P4E.1_K4.1_C4.1_H4.1_A4.1_F4.1_[+9TTCCT]_T4.1 (ssRNA) RNA: UUUGAUUAAUAUGAUAUCGUUCUUUCUUGUAUAUUAUUCCUUUCUUUCUCGAUAUCAUAUUAAUCUUU . State its measured Kd.
Reply: 0.282

Query: Report Kd, nothing else, for this binder: Ie_S2_P3E.2_K3.1_C3.2_H3.1_A3.1_[+6C]_F3.1_T3.2 (ssRNA) RNA: UUUGAUUAAUAUGAUAUCGUUCUUUCUCUUGUAUACUAUAUUCUUUCUCGAUAUCAUAUUAAUCUUU
Reply: 0.437

Query: Indicate its recorded Kd; the binder in question is Ib_S4_P4E.1_K4.1_C4.1_H4.1_[T1A]_A4.1_F4.1_[A9G]_T4.1 (ssRNA) RNA: UUUGACAACUGAUCGUUCUUUCUAGUAUAUUGUUCUUUCUCGAUCAGUUGUCUUU
Reply: 2230

Query: Please supply the value of reported Kd for the item Id_ii_S2_P3E.3_K3.2_C3.2_[C-2T]_[T-1C]_H3.2_A3.1_F3.1_T3.2_[T9G]_[A10T] (ssRNA) RNA: UUUGAUUAAUAUGAUAUCGUUCUUUCUUCUAUAUAUAGUUUCUUUCUCGAUAUCAUAUUAAUCUUU
Reply: 1030

Data provenance: paper PMC9352680
